Reported melting point values for a set of compounds

Below, each entry is followed by its recorded melting point result.
COC(=O)C=C1SC(=Nc2cccnc2)N(NC(=O)c2cc3ccc2CCc2ccc(cc2)CC3)C1=O    262 to 264 °C (dec.)
COC(=O)C=C1SC(=NNC(=O)c2cc3ccc2CCc2ccc(cc2)CC3)N(Cc2ccccc2)C1=O    175 to 177 °C

Recorded melting point (compound CCN1C(=O)C(=CC(=O)OC)SC1=NNC(=O)c1cc2ccc1CCc1ccc(cc1)CC2 ): 220 to 222 °C

Recorded melting point (compound C=CCN1C(=O)C(=CC(=O)OC)SC1=NNC(=O)c1cc2ccc1CCc1ccc(cc1)CC2 ): 241 to 243 °C

Recorded melting point (compound COC(=O)/C=C1/S/C(=N/NC(=O)c2cc3ccc2CCc2ccc(cc2)CC3)N(C2CC2)C1=O ): 180 to 182 °C

----------
- System: NCI-H322M
- method: NCI single-dose screen (SRB)
- Assay type: cell-based
- condition: Homo sapiens; Non-Small-Cell Lung Cancer NCI-H322M; 10^−5 M; read-out: Growth inhibition percentage
Classify by measured inhibition at 10 µM: Satisfied if it is equal to or exceeds 7%, Not satisfied if it is smaller.

Please review the following examples before continuing.
COC(=O)/C=C1/S/C(=N/NC(=O)c2cc3ccc2CCc2ccc(cc2)CC3)N(C2CC2)C1=O    Not satisfied
C=CCN1C(=O)C(=CC(=O)OC)SC1=NNC(=O)c1cc2ccc1CCc1ccc(cc1)CC2    Not satisfied

Ask: Is the recorded value of inhibition at 10 µM equal to or greater than 7% for this compound? CCN1C(=O)C(=CC(=O)OC)SC1=NNC(=O)c1cc2ccc1CCc1ccc(cc1)CC2
Result: Satisfied

Ask: Is the recorded value of inhibition at 10 µM equal to or greater than 7% for this compound? COC(=O)C=C1SC(=NNC(=O)c2cc3ccc2CCc2ccc(cc2)CC3)N(c2ccccc2)C1=O
Result: Satisfied

Ask: Is the recorded value of inhibition at 10 µM equal to or greater than 7% for this compound? COC(=O)C=C1SC(=Nc2cccnc2)N(NC(=O)c2cc3ccc2CCc2ccc(cc2)CC3)C1=O
Result: Not satisfied

Ask: Is the recorded value of inhibition at 10 µM equal to or greater than 7% for this compound? COC(=O)C=C1SC(=NNC(=O)c2cc3ccc2CCc2ccc(cc2)CC3)N(Cc2ccccc2)C1=O
Result: Not satisfied

----------
- System: UO-31
- method: NCI single-dose screen (SRB)
- Assay type: cell-based
- condition: Homo sapiens; Renal Cancer UO-31; 10^−5 M; read-out: Growth inhibition percentage
Reported inhibition at 10 µM values for a set of molecules
Just the number in %, nothing appended.

COC(=O)C=C1SC(=NNC(=O)c2cc3ccc2CCc2ccc(cc2)CC3)N(c2ccccc2)C1=O [Compound 3a]    41.5
COC(=O)C=C1SC(=NNC(=O)c2cc3ccc2CCc2ccc(cc2)CC3)N(Cc2ccccc2)C1=O [Compound 3b]    55
C=CCN1C(=O)C(=CC(=O)OC)SC1=NNC(=O)c1cc2ccc1CCc1ccc(cc1)CC2 [Compound 3d]    24.6

Recorded inhibition at 10 µM (molecule COC(=O)/C=C1/S/C(=N/NC(=O)c2cc3ccc2CCc2ccc(cc2)CC3)N(C2CC2)C1=O [Compound 3f] ): 21.7

Recorded inhibition at 10 µM (molecule CCN1C(=O)C(=CC(=O)OC)SC1=NNC(=O)c1cc2ccc1CCc1ccc(cc1)CC2 [Compound 3e] ): 21

Recorded inhibition at 10 µM (molecule COC(=O)C=C1SC(=Nc2cccnc2)N(NC(=O)c2cc3ccc2CCc2ccc(cc2)CC3)C1=O [Compound 3c] ): 21.9

Measured values drawn from paper PMC7411887 for this set.
